- TARGET_ENTITY: T1, Anti-PSMA Fab
- T1 construct: Biotinylated and captured on neutravidin plates in the phage ELISA; also called 006 PSMA Fab
- ASSAY_EXPLANATION: clonal phage ELISA; biotinylated anti-PSMA Fab on neutravidin plate; anti-M13 HRP detection; competitor: PSMA antigen pre-added
Mark rule met only for Phage binding ELISA signal, Anti-PSMA Fab with PSMA antigen values smaller than 0.08; exact matches and larger values are rule not met.

- DERMCVPEWMCMGM [Phage-3620]: rule met
- DDRVCRPDWMCNGF [Phage-3624]: rule met
- VVAVCKPLWMCEAF [Phage-3618]: rule met
- YMMKCIPEWMCTGL [Phage-3622]: rule met
- ADHMCVPQWMCSGF [Phage-3619]: rule not met
- IVKFCIPQWMCDGF [Phage-3623]: rule not met
- VHPMCTPLWMCVGF [Phage-3628]: rule not met
